# melting point per record follows

As a guide, the following entries are already answered.
COMPOUND: NC(=O)c1c(Cl)cn2c1CN(C(=O)Nc1ccc(-c3ccccn3)s1)CC2
melting point: 249 to 250 °C

COMPOUND: NC(=O)c1c(Cl)c(-c2ccccc2)n2c1CN(C(=O)Cc1ccccc1O)CC2
melting point: 176 to 180 °C

COMPOUND: N#Cc1c(C(N)=O)c2n(c1C1CC1)CCN(C(=O)Nc1ccc(C(=O)NCCN3CCOCC3)cc1)C2
melting point: 197 to 199 °C

Lab note: next compound to report on.
**Q:** Fill in: melting point of N#Cc1c(C(N)=O)c2n(c1-c1ccccc1)CCN(C(=O)Nc1ccc(C(=O)O)cc1)C2 is ___
**A:** 286 to 288 °C

Origin of the recorded values: patent US7148215B2
